# Assay Summary: relative bioavailability of oral formulations in rats (plasma DSB free acid)
# Format: in vivo, Sprague Dawley rats
# Experimental Conditions: male, Sprague-Dawley, rat, plasma, po, 25 mg/kg, single oral 25 mg/kg, suspension in 0.5% carboxymethylcellulose, average
Observable: Cmax (ng/mL)
Enter your answer as a number in ng/mL; do not include the unit.

Query: Identify Cmax associated with the compound C=C(C)[C@@H]1CC[C@]2(C(=O)O)CC[C@]3(C)[C@H](CC[C@@H]4[C@@]5(C)CC[C@H](OC(=O)CC(C)(C)C(=O)O)C(C)(C)[C@@H]5CC[C@]43C)[C@@H]12 [DSB•2NMG Form I]
Reply: 8200
